# Tested on: cultured human mast cells
# Procedure Details: Degranulation inhibition test using cultured human mast cells (IgE cross-linking, β-Hexosaminidase release)
# Type: cell-based
# Applied Conditions: Mast cell; Tables 1-x, compounds A; cultured human mast cells; read-out: human degranulation ave. IC50
Some molecules, each annotated with its measured IC50.

{"Molecule": "Cc1ccnc(Nc2cccc(-c3cnc(N4CCN(S(C)(=O)=O)CC4)s3)n2)c1", "Experimental Readout": "IC50", "Assay Result": "100 to 1000 nM"}
{"Molecule": "COCCNC(=O)C1CCN(c2ncc(-c3cccc(Nc4cc(C)ccn4)n3)s2)CC1", "Experimental Readout": "IC50", "Assay Result": "> 1000 nM"}
{"Molecule": "CC1(c2ccnc(Nc3cccc(-c4cnc(N5CC[C@@H](O)C5)s4)n3)c2)OCCO1", "Experimental Readout": "IC50", "Assay Result": "100 to 1000 nM"}
{"Molecule": "Cc1ccnc(Nc2cccc(-c3cnc(N4CCc5cc(C(=O)O)ccc5C4)s3)n2)c1", "Experimental Readout": "IC50", "Assay Result": "100 to 1000 nM"}

Give the measured IC50 of Cc1ccnc(Nc2cccc(-c3cnc(N4CCCC(CO)C4)s3)n2)c1 (centres unmarked) .
100 to 1000 nM

Try `NC(=O)C1CCN(c2ncc(-c3cccc(Nc4cc(Cl)ccn4)n3)s2)CC1` next.
< 100 nM

# repeat for OCC1CCN(c2ncc(-c3cccc(Nc4cc(Cl)ccn4)n3)s2)C1 (centres unmarked)
< 100 nM

Do the same for Cc1ccnc(Nc2cccc(-c3cnc(N4CCCC(COCC(N)=O)C4)s3)n2)c1 (centres unmarked) please
100 to 1000 nM

----------
Known pIC50 of a selection of compounds
# System Under Test: GST-Syk Full Protein (human) (Homo sapiens)
# Procedure Details: Syk kinase inhibition test (HTRF method)
# Assay type: biochemical
# Applied Conditions: HTRF, 100 μM ATP, 30 min room temperature, average; read-out: sykHTRF ave IC50
# Experimental: Syk Kinase Inhibition Test (HTRF Method) After the compounds were serially diluted with dimethylsulfoxide (DMSO), 10 μL of those 10-fold diluted with kinase buffer (20 mM HEPES pH 7.0, 10 mM MgCl2, 50 mM NaCl, 1 mM 2-ME, 0.05% BSA) was added to opti-plate HTRF-96 (Packard) (final DMSO concentration: 2%). […]
pIC50: −log10 of the molar value.

Solved entries (count: 8):
{"Compound": "Cc1ccnc(Nc2cccc(-c3cnc(C(=O)NC(C)CO)s3)n2)c1 (stereo not drawn)", "System Under Test": "GST-Syk Full Protein (human) (Homo sapiens)", "pIC50": "6.00 to 7.00"}
{"Compound": "COc1ccc(C[C@H](N)c2ncc(-c3cccc(Nc4cc(C)ccn4)n3)s2)cc1", "System Under Test": "GST-Syk Full Protein (human) (Homo sapiens)", "pIC50": "6.00 to 7.00"}
{"Compound": "Cc1ccnc(Nc2cccc(-c3cnc([C@@H](N)CCCCN)s3)n2)c1", "System Under Test": "GST-Syk Full Protein (human) (Homo sapiens)", "pIC50": "6.00 to 7.00"}
{"Compound": "CCOC(=O)Cc1ccnc(Nc2cccc(-c3cnc([C@@H]4CCC(=O)N4)s3)n2)c1", "System Under Test": "GST-Syk Full Protein (human) (Homo sapiens)", "pIC50": "6.00 to 7.00"}
{"Compound": "Cc1ccnc(Nc2cccc(-c3cnc([C@H](C)O)s3)n2)c1", "System Under Test": "GST-Syk Full Protein (human) (Homo sapiens)", "pIC50": "> 7.00"}
{"Compound": "CC(=O)N[C@@H](Cc1ccc(NC(=O)OCc2ccccc2)cc1)c1ncc(-c2cccc(Nc3cc(C)ccn3)n2)s1", "System Under Test": "GST-Syk Full Protein (human) (Homo sapiens)", "pIC50": "< 6.00"}
{"Compound": "Cc1ccnc(Nc2cccc(-c3cnc(Cc4cccnc4)s3)n2)c1", "System Under Test": "GST-Syk Full Protein (human) (Homo sapiens)", "pIC50": "> 7.00"}
{"Compound": "CNc1ncc(-c2cccc(Nc3cc(C)ccn3)n2)s1", "System Under Test": "GST-Syk Full Protein (human) (Homo sapiens)", "pIC50": "> 7.00"}

What does the data say about its pIC50? Entry: `Cc1ccnc(Nc2cccc(-c3cnc(CCCCCN)s3)n2)c1`
> 7.00

----------
# System: cultured human mast cells
# Procedure Details: Degranulation inhibition test using cultured human mast cells (IgE cross-linking, β-Hexosaminidase release)
# Format: cell-based
# Applied Conditions: Mast cell; cultured human mast cells, anti-hIgE stimulation, β-Hexosaminidase index, average; read-out: human degranulation ave. IC50
Listed here: items and their measured IC50.

{"Compound": "Cc1ccnc(Nc2cccc(-c3cnc(C4CCN(C)CC4)s3)n2)c1 [Compound A-183]", "Experimental Readout": "IC50", "Assay Result": "> 1 µM"}
{"Compound": "Cc1ccnc(Nc2cccc(-c3cnc(CN4CCOCC4)s3)n2)c1 [Compound A-193]", "Experimental Readout": "IC50", "Assay Result": "0.1 to 1 µM"}
{"Compound": "Cc1ccnc(Nc2cccc(-c3cnc(CCC4CCN(C(=O)c5ccncc5)CC4)s3)n2)c1 [Compound A-301]", "Experimental Readout": "IC50", "Assay Result": "0.1 to 1 µM"}

# get_value(readout='IC50', item= Cc1ccnc(Nc2cccc(-c3cnc(CCc4ccc(C(=O)O)cc4)s3)n2)c1 [Compound A-151] )
0.1 to 1 µM

Query Cc1ccnc(Nc2cccc(-c3cnc([C@H](C)O)s3)n2)c1 [Compound A-26] next
0.1 to 1 µM

Same again, this time with Cc1ccnc(Nc2cccc(-c3cnc([C@H]4CC[C@H](C(=O)N5CC[C@@H](O)C5)CC4)s3)n2)c1 [Compound A-241]
> 1 µM

Now the same for Cc1ccnc(Nc2cccc(-c3cnc([C@H]4CC[C@H](C(=O)N5CC[C@H](O)[C@H](O)C5)CC4)s3)n2)c1 [Compound A-239]
0.1 to 1 µM

What would you report for Cc1ccnc(Nc2cccc(-c3cnc(COCC(=O)N4CCC(O)CC4)s3)n2)c1 [Compound A-369] ?
> 1 µM

Also, Cc1ccnc(Nc2cccc(-c3cnc(Cc4ccc(CO)cc4)s3)n2)c1 [Compound A-243] please.
0.1 to 1 µM

----------
# System Under Test: GST-Syk Full Protein (human) (Homo sapiens, UniProt P43405)
# Procedure Details: Syk kinase inhibition test (HTRF method)
# Format: biochemical
# Applied Conditions: HTRF, 100 μM ATP, 30 min room temperature, average; read-out: sykHTRF ave IC50
We begin with a simple list: items and their reported IC50.

Examples from the recorded data:
{"Smiles String": "Cc1ccnc(Nc2cccc(-c3cnc([C@H]4CC[C@H](C(=O)N5CC[C@H](O)[C@H](O)C5)CC4)s3)n2)c1", "System Under Test": "GST-Syk Full Protein (human) (Homo sapiens, UniProt P43405)", "IC50": "< 100 nM"}
{"Smiles String": "Cc1ccnc(Nc2cccc(-c3cnc(C4CCN(C(=O)c5ccncc5)CC4)s3)n2)c1", "System Under Test": "GST-Syk Full Protein (human) (Homo sapiens, UniProt P43405)", "IC50": "100 to 1000 nM"}
{"Smiles String": "COc1ccnc(Nc2cccc(-c3cnc([C@H]4CC[C@H](C(=O)N5CCC(O)CC5)CC4)s3)n2)c1", "System Under Test": "GST-Syk Full Protein (human) (Homo sapiens, UniProt P43405)", "IC50": "100 to 1000 nM"}
{"Smiles String": "Cc1ccnc(Nc2cccc(-c3cnc(CNCC4(O)CCCCC4)s3)n2)c1", "System Under Test": "GST-Syk Full Protein (human) (Homo sapiens, UniProt P43405)", "IC50": "100 to 1000 nM"}
{"Smiles String": "Cc1ccnc(Nc2cccc(-c3cnc(Cc4ccc(CO)cc4)s3)n2)c1", "System Under Test": "GST-Syk Full Protein (human) (Homo sapiens, UniProt P43405)", "IC50": "< 100 nM"}

Moving on to the next compound.
What measured IC50 goes with `CNC(=O)N1CCN(c2ncc(-c3cccc(Nc4cc(C)ccn4)n3)s2)CC1` ?
< 100 nM

----------
# System Under Test: GST-Syk Full Protein (human) (Homo sapiens, UniProt P43405)
# Procedure Details: Syk kinase inhibition test (HTRF method)
# Type: biochemical
# Applied Conditions: HTRF, 100 μM ATP, 30 min room temperature, average; read-out: sykHTRF ave IC50
pIC50: −log10 of the molar value.
Experimental Readout: pIC50

{"Smiles String": "COc1ccnc(Nc2cccc(-c3cnc([C@H]4CC[C@H](C(=O)O)CC4)s3)n2)c1", "pIC50": "> 7.00"}
{"Smiles String": "Cc1ccnc(Nc2cccc(-c3cnc(CN)s3)n2)c1", "pIC50": "6.00 to 7.00"}
{"Smiles String": "Cc1ccnc(Nc2cccc(-c3cnc([C@H]4CC[C@H](C(=O)NN5CCC(O)CC5)CC4)s3)n2)c1", "pIC50": "> 7.00"}
{"Smiles String": "Cc1ccnc(Nc2cccc(-c3cnc(CCC4CCN(C(=O)CO)CC4)s3)n2)c1", "pIC50": "> 7.00"}
{"Smiles String": "CNC(=O)[C@H]1CC[C@H](c2ncc(-c3cccc(Nc4cc(C)ccn4)n3)s2)CC1", "pIC50": "> 7.00"}

Item `COc1ccc(NCc2ncc(-c3cccc(Nc4cc(C)ccn4)n3)s2)cc1` with GST-Syk Full Protein (human) (Homo sapiens, UniProt P43405) - pIC50?
6.00 to 7.00

Repeat for the following compound: `CC(=O)NC(C)(C)Cc1ncc(-c2cccc(Nc3cc(C)ccn3)n2)s1`
> 7.00

Now give it for `Cc1ccnc(Nc2cccc(-c3cnc(CN4CCC(O)CC4)s3)n2)c1` too.
> 7.00

Try `CC(=O)NC[C@H]1CC[C@H](c2ncc(-c3cccc(Nc4cc(C)ccn4)n3)s2)CC1` next.
> 7.00

Now try `Cc1ccnc(Nc2cccc(-c3cnc(CC(C)(C)N)s3)n2)c1` .
6.00 to 7.00
